EXPERIMENT: inhibitors of TNFa-induced NFkB p65 translocation, primary screen, imaging, HUVEC, MLSMR starter and 10KST1 sets (AID 438);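 note: compound added about 3h40 before a 20 min TNFalpha stimulation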
PROTOCOL_CONDITIONS: HUVEC TNFa-induced p65 nuclear translocation; measured here: nuclei count (cytotoxicity indicator), at 2.08 µM
Decide by cell count: equal to or exceeding 400 means True, less means False.

Previously resolved entries follow.
{"MOLECULE": "Cc1cc(C)n(CCCNC(=O)c2ccc3c(c2)NC(=O)CS3)n1", "CATEGORY_LABEL": "True"}
{"MOLECULE": "CC1(C)CC(=O)C2=C(C1)Nc1nc(SCCN3CCOCC3)[nH]c(=O)c1C2c1cccs1 (stereo unspecified)", "CATEGORY_LABEL": "True"}
{"MOLECULE": "CCCSc1nc2c(c(=O)[nH]c(=O)n2C)n1CCc1ccccc1", "CATEGORY_LABEL": "True"}

-- ask Textbook exercise: given the entry COc1cccc(OCCn2ccnc2)c1 , state whether its cell count is greater than or equal to 400.
-- reply False

-- ask Textbook exercise: given the entry CCOc1ccccc1C1CC(=O)Nc2cc3c(cc21)OCO3 (stereo unspecified) , state whether its cell count is greater than or equal to 400.
-- reply False

-- ask Textbook exercise: given the entry COC(=O)CCC(NC(=O)c1cc(-c2ccc3c(c2)OCCO3)oc1C)C(=O)OC (stereo unspecified) , state whether its cell count is greater than or equal to 400.
-- reply False

-- ask Textbook exercise: given the entry O=C1c2ccccc2-c2ccc(C(=O)N3CCOCC3)cc21 , state whether its cell count is greater than or equal to 400.
-- reply True

-- ask Textbook exercise: given the entry Cc1cc(C)c(C)c(S(=O)(=O)Nc2ccc(O)cc2)c1C , state whether its cell count is greater than or equal to 400.
-- reply False

-- ask Textbook exercise: given the entry O=C(NCc1nnc(SCC(=O)N2CCCCCC2)o1)c1ccco1 , state whether its cell count is greater than or equal to 400.
-- reply True

-- ask Textbook exercise: given the entry Cc1ccc(Cl)cc1N1CCN(C(=O)c2cn(C)c(=O)c3c2c2ccccc2n3C)CC1 , state whether its cell count is greater than or equal to 400.
-- reply False

-- ask Textbook exercise: given the entry CC(=O)C1=C(O)C(=O)N(Cc2ccco2)C1c1ccc(F)cc1 (stereo unspecified) , state whether its cell count is greater than or equal to 400.
-- reply False

* * *

EXPERIMENT: inhibitors of TNFa-induced NFkB p65 translocation, primary screen, imaging, HUVEC, MLSMR starter and 10KST1 sets (AID 438);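 note: compound added about 3h40 before a 20 min TNFalpha stimulation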
PROTOCOL_CONDITIONS: HUVEC TNFa-induced p65 nuclear translocation; measured here: nuclei count (cytotoxicity indicator), at 2.08 µM
Documented cell count across a set of molecules
Simply state the number, no unit and no words.

{"MOLECULE": "CC1(C)CC(=O)C=C(Nc2ccc(F)cc2)C1", "REPORTED_ENDPOINT": "cell count", "VALUE_REPORTED": 454}
{"MOLECULE": "CCCCc1cc(=O)oc2c(CN3CCCC3)c(O)c(Cl)cc12", "REPORTED_ENDPOINT": "cell count", "VALUE_REPORTED": 531}
{"MOLECULE": "CC1CN(c2nc3ccccc3nc2C(C#N)C(=O)OC2CCCCC2)CC(C)O1 (centres undefined)", "REPORTED_ENDPOINT": "cell count", "VALUE_REPORTED": 382}
{"MOLECULE": "COc1ccccc1NC(=O)C1(C)Cc2ccccc2C(=O)O1 (centres undefined)", "REPORTED_ENDPOINT": "cell count", "VALUE_REPORTED": 640}
{"MOLECULE": "O=C(Nc1ccc2c(c1)OCO2)c1cccc(Cl)c1", "REPORTED_ENDPOINT": "cell count", "VALUE_REPORTED": 407}

-- ask Item Cc1cc(-c2ccccc2)nc2cc(C(=O)NCCCn3ccnc3)nn12 has what recorded cell count?
-- reply 908

-- ask Item CC(=O)C1=C(O)C(=O)N(C2CCCCC2)C1c1ccccc1 (centres undefined) has what recorded cell count?
-- reply 467

-- ask Item CCCCNS(=O)(=O)c1ccc(OC)c2ncccc12 has what recorded cell count?
-- reply 568

-- ask Item COc1cc(C(=O)Nc2cc(-c3ccccc3)[nH]n2)cc(OC)c1OC has what recorded cell count?
-- reply 456

-- ask Item Cc1ccc(S(=O)(=O)NCC(c2cccnc2)N(C)C)cc1 (centres undefined) has what recorded cell count?
-- reply 453

-- ask Item O=C(CS(=O)(=O)Cc1ccccc1)N1CCc2ccccc2C1 has what recorded cell count?
-- reply 753

* * *

EXPERIMENT: TLR3 IRF3 reporter activation blockers – cell-based, poly I:C stimulus, luciferase, 10K MLSCN set, primary screen (AID 602277)
PROTOCOL_CONDITIONS: HEK293-TLR3 RL24 IRF3 luciferase reporter, at 10 µM, stronger effect = higher value
Decide by inhibition: equal to or exceeding 20% means yes, less means no.

Previously resolved entries follow.
{"COMPOUND": "CN(C)S(=O)(=O)N1CCN(c2cccc(Cl)c2)CC1", "CATEGORY_LABEL": "yes"}
{"COMPOUND": "Cc1ccc(C)c(N2CCN(CCCNC(=O)Cn3cc4c(n3)CCCCC4)CC2)c1", "CATEGORY_LABEL": "no"}
{"COMPOUND": "CC12C(=O)N(CCC(=O)O)C(=O)C1C1C=CC2C1 (stereo unspecified)", "CATEGORY_LABEL": "yes"}
{"COMPOUND": "COc1cc(OC)cc(C(=O)NCc2n[nH]c(=S)n2-c2ccccc2OC)c1", "CATEGORY_LABEL": "no"}
{"COMPOUND": "CCCC1CCC(C(=O)Nn2cnc3ccccc3c2=O)CC1 (stereo unspecified)", "CATEGORY_LABEL": "yes"}

-- ask Textbook exercise: given the entry O=C(NCCCNC1CCCCC1)c1ccc(/C=N/O)nc1 , state whether its inhibition is greater than or equal to 20%.
-- reply yes

* * *

EXPERIMENT: reduction of polyQ htt aggregates in cells – imaging, exon1htt(103Q)mCFP cells, high-content imaging, primary screen (AID 483);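 note: compound exposure lasted 3 days before fixation; percent of the per-plate median nuclei count of sample wells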
PROTOCOL_CONDITIONS: exon1htt(103Q)mCFP cell line, aggregate imaging, at 2 µM; measured here: cell count, toxicity
Documented nuclei count across a set of compounds
Give the value, in units of %, as a plain number.

{"COMPOUND": "COc1ccc(Cl)c(N2CCN(CCCNC(=O)Nc3ccc(C)cc3)CC2)c1", "nuclei count (%)": 98.8}
{"COMPOUND": "CS(=O)(=O)N(CC(=O)Nc1ccc2c(c1)OCO2)Cc1ccc(Cl)cc1", "nuclei count (%)": 92}
{"COMPOUND": "Cc1cc(NCCN2CCOCC2)n2nc(C)c(-c3ccccc3)c2n1", "nuclei count (%)": 118}

-- ask Item Cc1sc2nc(SCC(=O)NCCO)n(C)c(=O)c2c1C has what recorded nuclei count?
-- reply 109

-- ask Item Brc1ccc2ncnc(Nc3ccc(N4CCOCC4)cc3)c2c1 has what recorded nuclei count?
-- reply 106

-- ask Item O=C(CCN1CCN(CCO)CC1)Nc1ccc(OCc2ccccc2)cc1 has what recorded nuclei count?
-- reply 98.3

-- ask Item CCCCCCn1c(CN2CCN(Cc3ccccc3)CC2)nc2c1c(=O)n(C)c(=O)n2C has what recorded nuclei count?
-- reply 84.1

-- ask Item C=CCn1c(Cc2csc(N)n2)nnc1SCC(=O)OCC has what recorded nuclei count?
-- reply 86.3

* * *

TEST_TARGET: Alpha-2C adrenergic receptor (Homo sapiens) (UniProt P18825)
Sequence (P18825 whole entry, looked up): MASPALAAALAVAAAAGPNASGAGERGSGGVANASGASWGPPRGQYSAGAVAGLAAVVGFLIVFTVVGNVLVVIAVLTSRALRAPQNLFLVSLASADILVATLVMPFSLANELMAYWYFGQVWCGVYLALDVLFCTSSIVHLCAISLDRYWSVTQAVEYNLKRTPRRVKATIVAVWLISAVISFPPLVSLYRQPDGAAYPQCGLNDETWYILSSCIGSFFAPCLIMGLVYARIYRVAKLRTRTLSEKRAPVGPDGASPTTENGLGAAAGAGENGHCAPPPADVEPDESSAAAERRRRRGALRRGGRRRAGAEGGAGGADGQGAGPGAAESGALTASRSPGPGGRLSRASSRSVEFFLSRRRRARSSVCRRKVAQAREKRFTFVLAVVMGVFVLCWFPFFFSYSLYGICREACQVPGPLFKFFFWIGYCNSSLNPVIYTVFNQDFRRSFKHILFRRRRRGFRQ
EXPERIMENT: compounds altering alpha2C-coupled GIRK flux – cell-based, HEK293 alpha2C/GIRK1/2, thallium flux, primary screen (AID 624);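 note: slope of fluorescence ratio to pre-addition baseline per second over 15 to 24 s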
PROTOCOL_CONDITIONS: thallium flux BTC fluorescence, at 10 µM, actives lie on both sides
REPORTED_ENDPOINT: slope
Simply state the number, no unit and no words.

{"COMPOUND": "Cc1nnc(NC(=O)C2CCCO2)s1 (stereo unspecified)", "VALUE_REPORTED": 0.00593}
{"COMPOUND": "O=C(NC1CCCCC1)N(Cc1ccc(F)cc1)Cc1nc2ccccc2c(=O)[nH]1", "VALUE_REPORTED": 0.0032}
{"COMPOUND": "O=C(c1cccc(C(=O)N2CCN(c3ccc(F)cc3)CC2)c1)N1CCN(c2ccc(F)cc2)CC1", "VALUE_REPORTED": 0.006}
{"COMPOUND": "COc1ccc(C(=O)NCc2nnc(SC)n2C2CCCCC2)cc1", "VALUE_REPORTED": 0.00737}

-- ask Item CNc1ccc(C(O)(C(F)(F)F)C(F)(F)F)cc1C(O)(C(F)(F)F)C(F)(F)F has what recorded slope?
-- reply 0.00297

-- ask Item Cc1ccc(NC(=O)COC(=O)c2ccn(C)n2)cc1 has what recorded slope?
-- reply 0.0046

-- ask Item COCCOC(=O)C1=C(C)OC(N)=C(C#N)C1c1ccc2c(c1)OCO2 (stereo unspecified) has what recorded slope?
-- reply 0.00523

-- ask Item O=C(NC1CCCC1)C(NS(=O)(=O)c1cccc2nsnc12)c1ccccc1 (stereo unspecified) has what recorded slope?
-- reply 0.0045

-- ask Item O=C1c2ccccc2C(Nc2ccc(F)cc2F)N1CCN1CCOCC1 (stereo unspecified) has what recorded slope?
-- reply 0.00478

-- ask Item COc1ccccc1C1N(c2ccc(F)cc2)C(=O)C2CCCN21 (stereo unspecified) has what recorded slope?
-- reply 0.00544

-- ask Item C(/CCc1ccccc1)=N\n1cnnc1 has what recorded slope?
-- reply 0.00355
